RUN DESCRIPTION: Chemical stability of the compound in phosphate buffer at pH 7 assessed as compound remaining at 0.1 uM after 240 hrs by RP-HPLC analysis
Type: physicochemical
ASSAY CONTEXT: read-out: Stability
The reader will find reported remaining at 240 h, 0.1 µM values listed item by item below.
Supply the numeric figure in %, leaving out any unit text.

Check out these entries, answers already filled in.
COc1ccc2cc(C(C)C(=O)OCC(COC(=O)C(C)c3ccc4cc(OC)ccc4c3)(COC(=O)C(C)c3ccc4cc(OC)ccc4c3)NC(=O)CCC(=O)OCC(COC(=O)CCC(=O)NC(COC(=O)C(C)c3ccc4cc(OC)ccc4c3)(COC(=O)C(C)c3ccc4cc(OC)ccc4c3)COC(=O)C(C)c3ccc4cc(OC)ccc4c3)(COC(=O)CCC(=O)NC(COC(=O)C(C)c3ccc4cc(OC)ccc4c3)(COC(=O)C(C)c3ccc4cc(OC)ccc4c3)COC(=O)C(C)c3ccc4cc(OC)ccc4c3)NC(=O)OCc3ccccc3)ccc2c1 (stereo not drawn) :: 98.4
COc1ccc2cc(C(C)C(=O)NCCCCC(NC(=O)C(C)c3ccc4cc(OC)ccc4c3)C(=O)NCCCCC(NC(=O)C(CCCCNC(=O)C(C)c3ccc4cc(OC)ccc4c3)NC(=O)C(C)c3ccc4cc(OC)ccc4c3)C(=O)NCCCCC(NC(=O)C(CCCCNC(=O)C(CCCCNC(=O)C(C)c3ccc4cc(OC)ccc4c3)NC(=O)C(C)c3ccc4cc(OC)ccc4c3)NC(=O)C(CCCCNC(=O)C(C)c3ccc4cc(OC)ccc4c3)NC(=O)C(C)c3ccc4cc(OC)ccc4c3)C(=O)OCc3ccccc3)ccc2c1 (stereo not drawn) :: 96.1

Next item in the queue.
Reported remaining at 240 h, 0.1 µM of COc1ccc2cc(C(C)C(=O)OCCN(CCOC(=O)C(C)c3ccc4cc(OC)ccc4c3)CCC(=O)OCCN(CCOC(=O)CCN(CCOC(=O)C(C)c3ccc4cc(OC)ccc4c3)CCOC(=O)C(C)c3ccc4cc(OC)ccc4c3)CCC(=O)OCCN(CCOC(=O)CCN(CCOC(=O)CCN(CCOC(=O)C(C)c3ccc4cc(OC)ccc4c3)CCOC(=O)C(C)c3ccc4cc(OC)ccc4c3)CCOC(=O)CCN(CCOC(=O)C(C)c3ccc4cc(OC)ccc4c3)CCOC(=O)C(C)c3ccc4cc(OC)ccc4c3)CCC(=O)OCc3ccccc3)ccc2c1 (stereo not drawn) : 95.9
